Counter-ions that a name gives are not always drawn.
measure: melting point

Illustrative cases are given below, each with its answer.
> print(dat)
                                   molecule        measure      testvalue
1  CC(C)(C)c1ccc(C(=O)Nc2cn3nc(N)ccc3n2)cc1  melting point  267 to 268 °C
2  CC(C)(C(=O)NCCC#N)c1ccc(C(=O)Nc2cn3cc(Cl)ccc3n2)cc1  melting point  208 to 209 °C
3  CC(C)(CCc1noc(=O)[nH]1)c1ccc(C(=O)Nc2cn3cc(-n4ccnc4)ccc3n2)cc1  melting point  283 to 284 °C
4  CC(C)(CCC#N)c1ccc(C(=O)Nc2cn3c4c(ccc3n2)OCC4)cc1  melting point  227 to 228 °C
5  CC(C)(C)c1ccc(C(=O)Nc2cn3c4c(ccc3n2)OCC4)cc1  melting point  266 to 268 °C

Ask: # get_value(readout='melting point', item= Cc1ncc(-c2ccc3nc(NC(=O)c4ccc(C(C)(C)C)cc4)cn3n2)[nH]1 (as salt: hydrochloride) )
Reply: 295 to 297 °C (dec.)

Ask: Query: melting point; subject: CC(C)(C)c1ccc(C(=O)Nc2cn3nc(NCc4ccccn4)ccc3n2)cc1
Reply: 196 to 197 °C

Ask: Look up melting point for this molecule: Cc1cccc2nc(NC(=O)c3ccc(C(C)(C)C)cc3)cn12
Reply: 204 to 205 °C

Ask: Request the reported melting point associated with CC(C)(CO)c1ccc(C(=O)Nc2cn3cc(-c4ccsc4)ccc3n2)cc1
Reply: 250 to 252 °C

Ask: Give its melting point value. Item: O=C(Nc1cn2cc(-n3ccnc3)ccc2n1)c1ccc(-c2ccoc2)cc1
Reply: 261 to 263 °C

Ask: Fill in: melting point of CC(C)(CCO)c1ccc(C(=O)Nc2cn3cc(C(F)(F)F)ccc3n2)cc1 is ___
Reply: 152 to 153 °C

Ask: // returns reported melting point for input CC(C)(CNC(=O)Cc1cnc[nH]1)c1ccc(C(=O)Nc2cn3cc(C(F)(F)F)ccc3n2)cc1
Reply: 261 to 263 °C
